# METHOD: Cytotoxicity, MTT assay on day 7
# Type: cell-based
# CONDITION INFO: human, uninfected PHA-P-activated PBMC
Ends that are not written are not given here.
TEST READOUT: CC50 at 168 h

Which CC50 at 168 h value is on record for MEDLEETLFEEFENYSYDLDYYSLESC [GPR1] ?
> 1000 nM
